# procedureDetails: Selectivity index, ratio of IC50 for CHO cells to IC50 for chloroquine-resistant Plasmodium falciparum K1
# Format: toxicity, cell-based
# conditionContext: hamster, CHO cells (cytotoxicity) versus Plasmodium falciparum K1; read-out: Ratio IC50
selectivity ratio overview
readoutName: selectivity ratio

| compound | readoutName | obsValue |
| --- | --- | --- |
| CN1CCN(CC(O)COc2cccc3ccccc23)CC1 (racemic) | selectivity ratio | 36.1 |
| CC(C)c1c(O)ccc2c1CC[C@H]1C(C)(C)CCC[C@]21C | selectivity ratio | 14.6 |
| CC(C)c1c(OCC(O)CNCc2ccccc2)ccc2c1CC[C@H]1C(C)(C)CCC[C@]21C (stereo not given in full) | selectivity ratio | 22.3 |
| OC(CNCc1ccccc1)COc1cccc2ccccc12 (racemic) | selectivity ratio | 11.2 |
| CC(C)c1c(OCC(O)CN2CCN(c3ccccc3)CC2)ccc2c1CC[C@H]1C(C)(C)CCC[C@]21C (stereo not given in full) | selectivity ratio | 58.1 |

* * *

IC50 overview
# Tested on: Plasmodium falciparum
# procedureDetails: Antiplasmodial activity against chloroquine-resistant Plasmodium falciparum K1 after 48 hrs by lactate dehydrogenase assay
# Assay type: functional, organism-based
# conditionContext: K1, 48 h

| compound | IC50 [nM] |
| --- | --- |
| CCN(CC)CC(O)COc1ccc2c(c1C(C)C)CC[C@H]1C(C)(C)CCC[C@]21C (some centres undefined) | 630 |
| CC(C)c1c(OCC(O)CN2CCN(C)CC2)ccc2c1CC[C@H]1C(C)(C)CCC[C@]21C (some centres undefined) | 1390 |
| CC(C)c1c(OCC(O)CN2CCN(c3ccccc3Cl)CC2)ccc2c1CC[C@H]1C(C)(C)CCC[C@]21C (single isomer, unassigned) | 940 |
| CC(C)c1c(OCC(O)CN2C(=O)c3ccccc3C2=O)ccc2c1CC[C@H]1C(C)(C)CCC[C@]21C (some centres undefined) | 48300 |

* * *

selectivity ratio overview
# procedureDetails: Selectivity index, ratio of IC50 for CHO cells to IC50 for chloroquine-sensitive Plasmodium falciparum D10
# Assay type: toxicity, cell-based
# conditionContext: hamster, CHO cells (cytotoxicity) versus Plasmodium falciparum D10; read-out: Ratio IC50
readoutName: selectivity ratio

| compound | obsValue |
| --- | --- |
| CCN(CC)CC(O)COc1ccc2c(c1C(C)C)CC[C@H]1C(C)(C)CCC[C@]21C (some centres undefined) | 12.7 |
| CN1CCN(CC(O)COc2cccc3ccccc23)CC1 (racemic) | 6.2 |
| OC(CNCc1ccccc1)COc1ccc2ccccc2c1 (racemic) | 18.2 |
| CC(C)c1c(OCC(O)CN2CCN(c3ccnc4cc(Cl)ccc34)CC2)ccc2c1CC[C@H]1C(C)(C)CCC[C@]21C (single isomer, unassigned) | 67.3 |

* * *

# Tested on: Plasmodium falciparum
# procedureDetails: Antiplasmodial activity against Plasmodium falciparum schizonts assessed as change in parasitemia at IC50 concentration treated until all schizonts had burst and invasion was assumed to have occurred by Giemsa staining-based microscopy relative to control
# Format: functional

| molecule | experimentalSystem | unit | Activity |
| --- | --- | --- | --- |
| CC(C)c1c(OCC(O)CNCc2ccccc2)ccc2c1CC[C@H]1C(C)(C)CCC[C@]21C (some centres undefined) | Plasmodium falciparum | % | -0.52 |
| OC(CNCc1ccccc1)COc1cccc2ccccc12 (racemic) | Plasmodium falciparum | % | 1.41 |
| CC(C)NCC(O)COc1ccc2c(c1C(C)C)CC[C@H]1C(C)(C)CCC[C@]21C (some centres undefined) | Plasmodium falciparum | % | -3.4 |
| CC(C)NCC(O)COc1cccc2ccccc12 (racemic) | Plasmodium falciparum | % | -3.48 |

* * *

# System: Plasmodium falciparum
# procedureDetails: Antiplasmodial activity against chloroquine-resistant Plasmodium falciparum K1 after 48 hrs by lactate dehydrogenase assay
# Assay type: functional, organism-based
# conditionContext: K1, 48 h
pIC50: −log10 of the molar value.
pIC50 overview
readoutName: pIC50

| compound | obsValue |
| --- | --- |
| CC(C)c1c(O)ccc2c1CC[C@H]1C(C)(C)CCC[C@]21C | 4.93 |
| CC(C)c1c(OCC(O)CN2CCOCC2)ccc2c1CC[C@H]1C(C)(C)CCC[C@]21C (mixture of isomers) | 6.25 |
| OC(CNCc1ccccc1)COc1cccc2ccccc12 (racemic) | 6.14 |
| CN1CCN(CC(O)COc2cccc3ccccc23)CC1 (racemic) | 5.14 |
| CCOc1ccccc1N1CCN(CC(O)COc2ccc3c(c2C(C)C)CC[C@H]2C(C)(C)CCC[C@]32C)CC1 (stereo not given in full) | 6.00 |

* * *

# procedureDetails: Selectivity index, ratio of IC50 for CHO cells to IC50 for chloroquine-sensitive Plasmodium falciparum D10
# Format: toxicity, cell-based
# conditionContext: hamster, CHO cells (cytotoxicity) versus Plasmodium falciparum D10; read-out: Ratio IC50
readoutName: selectivity ratio

| molecule | obsValue |
| --- | --- |
| CC(C)c1c(OCC(O)CN2CCN(C)CC2)ccc2c1CC[C@H]1C(C)(C)CCC[C@]21C (stereo partly drawn) | 2.7 |
| CC(C)NCC(O)COc1ccc2c(c1C(C)C)CC[C@H]1C(C)(C)CCC[C@]21C (stereo partly drawn) | 1.2 |
| CC(C)c1c(OCC(O)CN2CCOCC2)ccc2c1CC[C@H]1C(C)(C)CCC[C@]21C (mixture of isomers) | 2.7 |
| CCOc1ccccc1N1CCN(CC(O)COc2ccc3c(c2C(C)C)CC[C@H]2C(C)(C)CCC[C@]32C)CC1 (stereo partly drawn) | 113 |
| CC(C)c1c(OCC(O)CN2CCN(c3ccccc3Cl)CC2)ccc2c1CC[C@H]1C(C)(C)CCC[C@]21C (single isomer, unassigned) | 57.3 |
| CN1CCN(CC(O)COc2ccc3ccccc3c2)CC1 (racemic) | 3.5 |
| CC(C)c1c(OCC(O)CN2CCCCC2)ccc2c1CC[C@H]1C(C)(C)CCC[C@]21C (stereo partly drawn) | 2.8 |
| OC(CNCc1ccccc1)COc1cccc2ccccc12 (racemic) | 1.6 |

* * *

# procedureDetails: Selectivity index, ratio of IC50 for CHO cells to IC50 for chloroquine-sensitive Plasmodium falciparum D10
# Format: toxicity, cell-based
# conditionContext: hamster, CHO cells (cytotoxicity) versus Plasmodium falciparum D10; read-out: Ratio IC50
selectivity ratio overview
readoutName: selectivity ratio

| molecule | readoutName | obsValue |
| --- | --- | --- |
| CC(C)c1c(OCC(O)CNCc2ccccc2)ccc2c1CC[C@H]1C(C)(C)CCC[C@]21C (stereo partly drawn) | selectivity ratio | 2.2 |
| CC(C)c1c(OCC(O)CN2CCN(c3ccccc3)CC2)ccc2c1CC[C@H]1C(C)(C)CCC[C@]21C (stereo partly drawn) | selectivity ratio | 41.2 |
| CC(C)c1c(O)ccc2c1CC[C@H]1C(C)(C)CCC[C@]21C [TOTAROL] | selectivity ratio | 14.5 |

* * *

# Tested on: Plasmodium falciparum
# procedureDetails: Resistance index, ratio of IC50 for chloroquine-resistant Plasmodium falciparum K1 to IC50 for chloroquine-sensitive Plasmodium falciparum D10
# Format: functional

| compound | Ratio IC50 |
| --- | --- |
| CC(C)c1c(OCC(O)CN2CCN(c3ccccc3Cl)CC2)ccc2c1CC[C@H]1C(C)(C)CCC[C@]21C (single isomer, unassigned) | 0.23 |
| CC(C)c1c(OCC(O)CN2C(=O)c3ccccc3C2=O)ccc2c1CC[C@H]1C(C)(C)CCC[C@]21C (some centres not stated) | 5.06 |
| CCOc1ccccc1N1CCN(CC(O)COc2ccc3c(c2C(C)C)CC[C@H]2C(C)(C)CCC[C@]32C)CC1 (some centres not stated) | 0.62 |
| CC(C)c1c(OCC2CO2)ccc2c1CC[C@H]1C(C)(C)CCC[C@]21C (some centres not stated) | 1.36 |
| CC(C)c1c(OCC(O)CN2CCCCC2)ccc2c1CC[C@H]1C(C)(C)CCC[C@]21C (some centres not stated) | 0.7 |
| CC(C)c1c(OCC(O)CNCc2ccccc2)ccc2c1CC[C@H]1C(C)(C)CCC[C@]21C (some centres not stated) | 0.1 |
| CC(C)c1c(OCC(O)CN2CCN(c3ccccc3)CC2)ccc2c1CC[C@H]1C(C)(C)CCC[C@]21C (some centres not stated) | 0.71 |
| CN1CCN(CC(O)COc2cccc3ccccc23)CC1 (racemic) | 0.17 |
| CC(C)c1c(O)ccc2c1CC[C@H]1C(C)(C)CCC[C@]21C [TOTAROL] | 0.99 |
| CC(C)c1c(OCC(O)CN2CCOCC2)ccc2c1CC[C@H]1C(C)(C)CCC[C@]21C (mixture of isomers) | 0.27 |
| CN1CCN(CC(O)COc2ccc3ccccc3c2)CC1 (racemic) | 0.19 |
| OC(CNCc1ccccc1)COc1ccc2ccccc2c1 (racemic) | 2 |
| CCN(CC)CC(O)COc1ccc2c(c1C(C)C)CC[C@H]1C(C)(C)CCC[C@]21C (some centres not stated) | 1.04 |
| CC(C)c1c(OCC(O)CN2CCN(C)CC2)ccc2c1CC[C@H]1C(C)(C)CCC[C@]21C (some centres not stated) | 1.03 |
| CC(C)c1c(OCC(O)CN2CCN(c3ccnc4cc(Cl)ccc34)CC2)ccc2c1CC[C@H]1C(C)(C)CCC[C@]21C (single isomer, unassigned) | 0.64 |
| OC(CNCc1ccccc1)COc1cccc2ccccc12 (racemic) | 0.14 |
| CC(C)NCC(O)COc1ccc2c(c1C(C)C)CC[C@H]1C(C)(C)CCC[C@]21C (some centres not stated) | 0.14 |
